From: patent US20240123080A1

System: L540cy HL
Assay info: In vitro cytotoxicity, cell proliferation assay (CellTiter-Glo, 96 h)
Format: cell-based
Experimental parameters: auristatin free drug
pIC50: −log10 of the molar value. Where a SMILES comes first, the peptide text is derived from it. [ ]: non-standard residue; d: D form. The star is where a group is joined. Dolaproine = CO[C@@H]([C@@H]1CCCN1)[C@@H](C)C(=O)O; Dil = CC[C@H](C)[C@H](NC)[C@@H](CC(=O)O)OC; Val(3-OH) = CC(C)(O)[C@H](N)C(=O)O; Doe = c1ccc(C[C@H](N*)c2nccs2)cc1; NMeV = CN[C@H](C(=O)O)C(C)C; X8 = CN1C(=O)OC[C@H]1C(=O)*; NMeS = CN[C@@H](CO)C(=O)O
Tick criterion met if pIC50 is 8 or greater. Tick criterion not met if pIC50 is less than 8.

Compound	Group
CC[C@H](C)[C@@H]([C@@H](CC(=O)N1CCC[C@H]1[C@H](OC)[C@@H](C)C(=O)N[C@@H](Cc1ccccc1)C(=O)O)OC)N(C)C(=O)[C@@H](NC(=O)[C@@H]1COC(=O)N1C)C(C)C [Comparative Example C, reference compound] (X8-V[Dil][Dolaproine]F-OH)	criterion not met
CC[C@H](C)[C@@H]([C@@H](CC(=O)N1CCC[C@H]1[C@H](OC)[C@@H](C)C(=O)N[C@@H](Cc1ccccc1)C(=O)O)OC)N(C)C(=O)[C@@H](NC(=O)[C@@H](NC)C(C)C)C(C)C [MMAF, monomethyl auristatin F, reference compound] (H-[NMeV]V[Dil][Dolaproine]F-OH)	criterion not met
CC[C@H](C)[C@@H]([C@@H](CC(=O)N1CCC[C@H]1[C@H](OC)[C@@H](C)C(=O)N[C@@H](Cc1ccccc1)c1nccs1)OC)N(C)C(=O)[C@@H](NC(=O)[C@H](CO)NC)C(C)C [Example 19] (H-[NMeS]V[Dil][Dolaproine]-Doe)	criterion met

Here is another compound to look at.
# input hey, is pIC50 for this one >= 8? CC[C@H](C)[C@@H]([C@@H](CC(=O)N1CCC[C@H]1[C@H](OC)[C@@H](C)C(=O)N[C@@H](Cc1ccccc1)c1nccs1)OC)N(C)C(=O)[C@@H](NC(=O)[C@@H](N)C(C)(C)O)C(C)C [Example 31] (H-[Val(3-OH)]V[Dil][Dolaproine]-Doe)
# output criterion met
